What follows is a collection of IC50 values obtained with Glucocorticoid receptor (Homo sapiens, UniProt P04150).
Form entry: value (nM) — number only.

Study these solved cases before continuing.
# molecule, unit of measurement, IC50
records = [
    ("CCC1(CC(O)(Cc2[nH]c3ccccc3c2C#N)C(F)(F)F)CCCc2ccccc21 (stereo not given)", "nM", 7.59),
    ("CC1(CC(O)(Cn2ccc(=O)c3ccccc32)C(F)(F)F)CCCc2ccccc21 (stereo in doubt; 17D1)", "nM", 14.1),
    ("CCC1(CC(O)(Cc2cc3ccccc3[nH]2)C(F)(F)F)CCCc2ccccc21 (stereo in doubt; 20D1E2)", "nM", 1260),
]

# input Requested field: IC50. Item: CCC1(CC(O)(Cc2cc3c(C)cc(C#N)cc3[nH]2)C(F)(F)F)CCCc2ccccc21 (stereo in doubt; 21D1)
# output 89.1

# input # repeat for Cc1noc(=O)c2ccc(NC(=O)C(O)(CC3(C4CCCC4)CCCc4ccccc43)C(F)(F)F)cc12 (stereo not given)
# output 8.13

# input Lookup OC(Cc1ccnc2ccccc12)(CC1(C2CCCC2)CCCc2ccccc21)C(F)(F)F (stereo not given)
# output 148

# input Also need CCC1(CC(O)(Cc2cc(Cl)nc3ccccc23)C(F)(F)F)CCCc2ccccc21 (stereo not given) , thanks.
# output 28.2

# input Now consider Cc1ccc2c(NCC(O)(CC3(C)CCCc4ccccc43)C(F)(F)F)cccc2n1 (stereo in doubt; 55D2E1) .
# output 9.12

# input Consider next the molecule CC1(CC(O)(Cc2cc3ccccc3[nH]2)C(F)(F)F)CCCc2ccccc21 (stereo not given) in the same way.
# output 22.9

# input Continue with CC1(CC(O)(Cc2ccnc3ccccc23)C(F)(F)F)CCCc2ccccc21 (stereo in doubt; 41D1)
# output 15.1

---

Dear all, this message contains IC50 results, target or system Glucocorticoid receptor (Homo sapiens, UniProt P04150).
State the answer as a number, implicitly in nM.

# molecule, IC50 [nM]
measured = [
    ("CC1(CC(O)(Cn2ccc(=O)c3ccccc32)C(F)(F)F)CCCc2ccccc21 (stereo in doubt; 17D2)", 708),
    ("CC1(CC(O)(CNc2cccc3cnccc23)C(F)(F)F)CCCc2ccccc21 (stereo in doubt; 54D1E2)", 102),
    ("CCC1(CC(O)(Cc2cc3ccncc3[nH]2)C(F)(F)F)CCCc2ccccc21 (stereo in doubt; 23D1E1)", 741),
]

Continue with the molecule presented below.
# input What value of IC50 has been reported for the following molecule? Cc1ccc2c(NCC(O)(CC3(C)CCCc4ccccc43)C(F)(F)F)cccc2n1 (stereo in doubt; 55D1E1)
# output 77.6

---

# experimental system: Glucocorticoid receptor (Homo sapiens, UniProt P04150)
# Sequence (P04150 whole entry): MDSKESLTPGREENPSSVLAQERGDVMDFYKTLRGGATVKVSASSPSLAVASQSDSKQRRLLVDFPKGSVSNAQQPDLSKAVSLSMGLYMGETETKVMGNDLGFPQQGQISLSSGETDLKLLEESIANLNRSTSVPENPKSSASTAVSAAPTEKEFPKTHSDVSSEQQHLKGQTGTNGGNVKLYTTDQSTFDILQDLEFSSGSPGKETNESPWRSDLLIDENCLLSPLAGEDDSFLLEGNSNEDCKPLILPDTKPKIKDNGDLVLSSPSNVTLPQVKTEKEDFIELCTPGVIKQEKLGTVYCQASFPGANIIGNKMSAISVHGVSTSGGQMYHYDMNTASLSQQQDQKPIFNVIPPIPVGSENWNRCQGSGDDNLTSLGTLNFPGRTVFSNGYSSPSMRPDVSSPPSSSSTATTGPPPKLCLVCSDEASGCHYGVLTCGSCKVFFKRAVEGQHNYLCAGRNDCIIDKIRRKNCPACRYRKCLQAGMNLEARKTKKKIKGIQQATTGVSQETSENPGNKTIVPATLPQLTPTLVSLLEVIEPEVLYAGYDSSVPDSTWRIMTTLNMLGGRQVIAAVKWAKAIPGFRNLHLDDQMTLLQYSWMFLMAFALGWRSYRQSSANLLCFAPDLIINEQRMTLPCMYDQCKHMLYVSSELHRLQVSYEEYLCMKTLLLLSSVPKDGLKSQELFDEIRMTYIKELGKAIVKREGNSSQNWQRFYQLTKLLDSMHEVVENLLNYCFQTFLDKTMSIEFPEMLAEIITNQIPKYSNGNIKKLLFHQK
# assay text: Agonist activity at glucocorticoid receptor in human A549 cells by MMTV transactivation assay
pEC50: −log10 of the molar value.
Consider the following compounds and their measured pEC50 readings.

# compound, measure name, data value
measured = [
    ("CCC1(CC(O)(Cn2ccc(=O)c3ccccc32)C(F)(F)F)CCCc2ccccc21 (stereo not drawn)", "pEC50", "< 6.00"),
]

# input Would you kindly share the measured pEC50 for OC(Cc1ccnc2ccccc12)(CC1(C2CCCC2)CCCc2ccccc21)C(F)(F)F (stereo not drawn) ?
# output < 5.00

# input Now give it for CCC1(CC(O)(Cc2[nH]c3ccccc3c2C#N)C(F)(F)F)CCCc2ccccc21 (stereo not drawn) too.
# output < 6.00
